- System: NB4
- assay-notes: area under dose-response curve (cell viability) (AUC (arbitrary, % viability x log concentration)); higher = less sensitive (more viable)
- study-conditions: 4 days
Catalogue of area under dose-response curve readings, one per entry.
endpoint-label: area under dose-response curve

INSERT INTO measurements (compound, measured_target, result_value) VALUES
  ('COc1cc(N2CCC(N3CCN(C)CC3)CC2)ccc1Nc1ncc(Cl)c(Nc2ccccc2S(=O)(=O)C(C)C)n1 [NVP-TAE-684]', 'NB4', 591),
  ('CCN(CC)CCCC(C)Nc1c2ccc(Cl)cc2nc2ccc(OC)cc12 (stereo not given) [Acrichine]', 'NB4', 607),
  ('O=C1NC(=O)/C(=C\c2ccc3nccnc3c2)S1', 'NB4', 605),
  ('CCCS(=O)(=O)Nc1ccc(F)c(C(=O)c2c[nH]c3ncc(-c4ccc(Cl)cc4)cc23)c1F [PLX-4032]', 'NB4', 618),
  ('CN1CCN(c2ccc3nc(-c4c(N)c5c(F)cccc5[nH]c4=O)[nH]c3c2)CC1 [TKI258]', 'NB4', 592);
